- Test system: GM1 production in Jurkat cells
- measurement notes: cells
- Format: cell-based
- details: Homo sapiens, Jurkat, 72 h
Classes by IC50: lower segment: < 1 nM; middle segment: ≥ 1 nM and < 9 nM; upper segment: ≥ 9 nM

compound: O=C(NC1CCOc2cc(C3=CCCO3)ccc21)O[C@@H]1CN2CCC1CC2 (stereo partly shown)
qualitative label: upper segment

compound: CCOc1cccc(-c2ccc3c(c2)OCC(C)(C)C3NC(=O)O[C@@H]2CN3CCC2CC3)c1 (stereo partly shown)
qualitative label: middle segment

compound: CC(C)(C)c1ccc(-c2ccc3c(c2)OCC(C)(C)C3NC(=O)O[C@@H]2CN3CCC2CC3)cc1 (stereo partly shown)
qualitative label: lower segment

compound: CC1(C)COc2cc(-c3ccc(CC#N)cc3)ccc2C1NC(=O)O[C@@H]1CN2CCC1CC2 (stereo partly shown)
qualitative label: upper segment

compound: CCOc1cc(-c2ccc3c(c2)OCC(C)(C)C3NC(=O)O[C@@H]2CN3CCC2CC3)c(Cl)cc1Cl (stereo partly shown)
qualitative label: upper segment

State the band of COc1ccc(-c2cc3c(cc2F)C(NC(=O)O[C@@H]2CN4CCC2CC4)C(C)(C)CO3)c(F)c1 (stereo partly shown)
middle segment

State the band of Cc1ccc(-c2ccc3c(c2)C(NC(=O)O[C@@H]2CN4CCC2CC4)CCO3)cc1 (stereo partly shown)
upper segment

* * *

- Test system: GM1 production in Jurkat cells
- measurement notes: cells
- Assay type: cell-based
- details: Homo sapiens, Jurkat, 72 h
measured attribute: IC50 (nM)
Answers are plain numbers, in nM.

// below: answered molecules
molecule: Cc1cscc1-c1ccc2c(c1)OCCC2(C)NC(=O)O[C@@H]1CN2CCC1CC2 (stereo partly shown) [Example 311]
value: 0.7
//
molecule: CC1(C)COc2cc(-c3ccc4c(c3)OCO4)ccc2C1NC(=O)O[C@@H]1CN2CCC1CC2 (stereo partly shown) [Example 249]
value: 4
//
molecule: COc1ccc(-c2cc3c(cc2OC)C(NC(=O)O[C@@H]2CN4CCC2CC4)C(C)(C)CO3)cc1 (stereo partly shown) [Example 355]
value: 5.8

Any idea what its IC50 is? The molecule is O=C(NC1CCSc2cc(-c3coc4ccccc34)ccc21)O[C@@H]1CN2CCC1CC2 (stereo partly shown) [Example 328]
13.8

* * *

- target system: glucosylceramide synthase (GCS) (Homo sapiens)
- Construct: The obtained supernatant was used
- Sequence (Q16739 whole entry): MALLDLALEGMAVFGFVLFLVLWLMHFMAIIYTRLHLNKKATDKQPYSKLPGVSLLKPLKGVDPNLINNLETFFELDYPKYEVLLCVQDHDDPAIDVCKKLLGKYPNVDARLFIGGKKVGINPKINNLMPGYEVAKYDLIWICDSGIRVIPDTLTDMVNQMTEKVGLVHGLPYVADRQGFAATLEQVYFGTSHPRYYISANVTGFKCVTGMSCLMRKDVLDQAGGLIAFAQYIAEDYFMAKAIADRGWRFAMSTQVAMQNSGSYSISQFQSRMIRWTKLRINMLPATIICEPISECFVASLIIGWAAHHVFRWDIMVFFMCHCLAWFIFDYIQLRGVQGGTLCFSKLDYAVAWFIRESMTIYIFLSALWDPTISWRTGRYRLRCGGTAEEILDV
- measurement notes: GCS enzyme inhibition assay (A549 cell lysate, NBD C6-ceramide, HPLC fluorescence)
- details: inhibitory activity against GCS, 37° C., 90 minutes
pIC50: −log10 of the molar value.
Criterion: pIC50 meeting or surpassing 9. Met: Fulfilled. Not met: Not fulfilled.

// below: answered compounds
compound: O=C(NC1CCOc2cc(-c3cccc4[nH]ncc34)ccc21)O[C@@H]1CN2CCC1CC2 (some centres unmarked)
qualitative label: Not fulfilled

compound: CC(C)(C)c1cccc(-c2ccc3c(c2)OCCC3(C)NC(=O)O[C@@H]2CN3CCC2CC3)c1 (some centres unmarked)
qualitative label: Fulfilled

compound: CC(C)c1cccc(-c2ccc3c(c2)OCC(C)(C)C3NC(=O)O[C@@H]2CN3CCC2CC3)c1 (some centres unmarked)
qualitative label: Fulfilled

As a next step, examine the compound that follows.
# bool: pIC50 of CC1(C)COc2cc(-c3ccc(OC(F)F)cc3)ccc2C1NC(=O)O[C@@H]1CN2CCC1CC2 (some centres unmarked) >= 9
Fulfilled
